Target: T1, human TGR1 (human, UniProt Q9GZQ4 1-415)
T1 construct: whole, on cells; Assayed as the membrane fraction of TGR1-expressing CHO cells (1.1 mg/mL protein); also called NMUR2; TGR1 receptor
T1 sequence (Q9GZQ4 whole entry): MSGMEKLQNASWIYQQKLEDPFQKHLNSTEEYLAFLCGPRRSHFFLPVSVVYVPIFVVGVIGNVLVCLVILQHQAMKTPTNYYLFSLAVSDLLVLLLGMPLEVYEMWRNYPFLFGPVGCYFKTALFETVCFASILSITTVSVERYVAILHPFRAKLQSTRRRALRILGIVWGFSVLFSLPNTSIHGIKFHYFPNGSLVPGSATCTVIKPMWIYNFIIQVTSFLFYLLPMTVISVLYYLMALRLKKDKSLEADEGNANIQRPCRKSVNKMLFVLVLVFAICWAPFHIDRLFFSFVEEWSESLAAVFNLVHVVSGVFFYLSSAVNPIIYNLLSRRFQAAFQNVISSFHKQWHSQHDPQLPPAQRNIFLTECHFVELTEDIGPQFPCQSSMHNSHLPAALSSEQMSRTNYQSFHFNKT
Test: displacement of 125I-NMU8 from human TGR1 CHO membrane fraction; IC50 relative to NMU-8;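 further: competitive binding on TGR1-expressing CHO cell membranes, with compounds tested as DMSO dilution series and incubated for 70 min at 25 °C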
Non-standard residues stand in square brackets, D forms with d. *: point of attachment. Acetyl(2-(piperazin-1-yl)) = O=C(CN1CCNCC1)*; 2Nal = N[C@@H](Cc1ccc2ccccc2c1)C(=O)O; Arg(Me) = CNC(=N)NCCC[C@H](N)C(=O)O; NMeA = CN[C@@H](C)C(=O)O; βAla = NCCC(=O)O
Each item that follows carries a reported IC50 ratio.

[
  {
    "BINDER": "{mPEG 30 kDa-βAla}-YFLFRP[Arg(Me)]N-NH2 [PEG30k-NH-β-Ala0,Arg(Me)7-NMU-8 (Compound N)]",
    "IC50 ratio": "63 ratio to NMU-8 (=1)"
  },
  {
    "BINDER": "{Acetyl(2-(piperazin-1-yl))}-Y[2Nal]LFR[NMeA]RN-NH2 (SMILES CC(C)C[C@H](NC(=O)[C@H](Cc1ccc2ccccc2c1)NC(=O)[C@H](Cc1ccc(O)cc1)NC(=O)CN1CCNCC1)C(=O)N[C@@H](Cc1ccccc1)C(=O)N[C@@H](CCCNC(=N)N)C(=O)N(C)[C@@H](C)C(=O)N[C@@H](CCCNC(=N)N)C(=O)N[C@@H](CC(N)=O)C(N)=O, X stands for Nal(2); also called 2-(piperazin-1-yl)acetyl-[Nal(2)2,NMeAla6]-NMU8) [NpipAc0,Nal(2)2,NMeAla6-NMU-8 (Compound 22)]",
    "IC50 ratio": "1.7 ratio to NMU-8 (=1)"
  },
  {
    "BINDER": "{Acetyl(2-(piperazin-1-yl))}-YELFR[NMeA]RN-NH2 (SMILES CC(C)C[C@H](NC(=O)[C@H](CCC(=O)O)NC(=O)[C@H](Cc1ccc(O)cc1)NC(=O)CN1CCNCC1)C(=O)N[C@@H](Cc1ccccc1)C(=O)N[C@@H](CCCNC(=N)N)C(=O)N(C)[C@@H](C)C(=O)N[C@@H](CCCNC(=N)N)C(=O)N[C@@H](CC(N)=O)C(N)=O, also called 2-(piperazin-1-yl)acetyl-[Glu2,NMeAla6]-NMU8) [NpipAc0,Glu2,NMeAla6-NMU-8 (Compound 21)]",
    "IC50 ratio": "5.5 ratio to NMU-8 (=1)"
  }
]
